target: Prothrombin (Homo sapiens, UniProt P00734)
Kindly state Ki for each of the entries shown.
Give bare numbers, in nM.

Solved entries (count: 2):
| smiles_code | output_unit | Ki |
| --- | --- | --- |
| CCCc1ccc(NS(=O)(=O)Cc2ccccc2)c(=O)n1CC(=O)NCc1ccc(N)nc1C | nM | 0.85 |
| Cc1nc(N)ccc1CNC(=O)Cn1c(C(F)(F)F)ccc(NS(=O)(=O)Cc2ccc(Cl)cc2)c1=O | nM | 2.6 |

Exam item: Please give the measured Ki for this molecule: Cc1nc(N)ccc1CNC(=O)Cn1c(C2CC2)ccc(NS(=O)(=O)Cc2ccc(Cl)cc2)c1=O
Marked response: 4
